# ASSAYED_TARGET: Acetylcholinesterase (AChE) (Rattus norvegicus, UniProt P37136)
# Construct: corpora striata dissected free, weighed and homogenized in 19 volumes; from tissue; host or cells: rat corpora striata (brain) homogenate, male Wistar rats
# Sequence (P37136 32-614): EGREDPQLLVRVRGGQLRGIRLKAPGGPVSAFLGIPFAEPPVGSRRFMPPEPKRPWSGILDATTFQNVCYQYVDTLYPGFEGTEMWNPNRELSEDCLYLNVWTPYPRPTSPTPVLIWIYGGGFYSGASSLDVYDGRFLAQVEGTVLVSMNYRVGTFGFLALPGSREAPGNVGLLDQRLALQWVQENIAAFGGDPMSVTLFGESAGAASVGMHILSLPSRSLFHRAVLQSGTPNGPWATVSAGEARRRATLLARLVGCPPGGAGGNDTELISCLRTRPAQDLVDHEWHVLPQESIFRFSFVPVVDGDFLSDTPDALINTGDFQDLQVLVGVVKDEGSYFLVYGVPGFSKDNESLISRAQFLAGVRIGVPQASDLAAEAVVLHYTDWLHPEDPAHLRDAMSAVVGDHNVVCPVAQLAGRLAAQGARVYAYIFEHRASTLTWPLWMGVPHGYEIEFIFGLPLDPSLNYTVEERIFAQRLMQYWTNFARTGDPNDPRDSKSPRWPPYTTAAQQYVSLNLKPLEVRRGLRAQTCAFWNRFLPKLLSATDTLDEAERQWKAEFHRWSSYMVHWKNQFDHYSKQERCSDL
# TEST_DESCRIPTION: In vitro inhibition of acetylcholinesterase activity in rat striatum (modified Ellman method)
# Assay type: biochemical
# STATED_CONDITIONS: Brain acetylcholinesterase, rat striatum homogenate; preincubated 10 minutes at 37°C; acetylthiocholine 5 mM final; pH 7.2; read-out: Inhibitory Concentration IC₅₀
# Description: Cholinesterases are found throughout the body, both in the brain and in serum. However, only brain acetylcholinesterease (AChE) distribution is correlated with central cholinergic innervation. […] We have determined in vitro inhibition of acetylcholinesterase activity in rat striatum according to the method described below. […] • A. Reagents - • 1. […] Assay Enzyme activity is measured with the Beckman DU-50 spectrophotometer. […] This program also calculates the rate of absorbance change for each cuvette. […]
QUANTITY_NAME: IC50 (µM)
Answers are plain numbers, in µM.

Inquiry: Request the reported IC50 associated with "O=C(NCc1ccccc1)Oc1ccc2c(ccn2Cc2ccncc2)c1"
Reply text: 12.5

* * *

# ASSAYED_TARGET: Acetylcholinesterase (AChE) (Rattus norvegicus, UniProt P37136)
# Construct: corpora striata dissected free, weighed and homogenized in 19 volumes; from tissue; host or cells: rat corpora striata (brain) homogenate, male Wistar rats
# TEST_DESCRIPTION: In vitro inhibition of acetylcholinesterase activity in rat striatum (modified Ellman method)
# Assay type: biochemical
QUANTITY_NAME: pIC50
One number for each entry, as −log10 of the molar value.

Inquiry: Request the reported pIC50 associated with "CNC(=O)Oc1ccc2c(ccn2Cc2ccncc2)c1"
Reply text: 5.17

The origin of these recorded values is patent EP0471298B1.
